Recorded β-hex activity increase for the following compounds
System: NRK cells
Experiment Description: β-hexosaminidase activity in the medium after exposure of NRK cells
Experimental Setup: rat, 24 h

>>> result("CSc1ccc2c(c1)N(CCC1CCCCN1C)c1ccccc1S2 (stereo not shown) [thioridazine]")
"10 µM"
>>> result("CCN(CC)CCOc1ccc2c(c1)C(=O)c1cc(OCCN(CC)CC)ccc1-2 [tilorone]")
">2.5 µM"
>>> result("C=C[C@H]1C[N@@]2CC[C@H]1C[C@@H]2[C@@H](O)c1ccnc2ccc(OC)cc12 [quinidine]")
"100 µM"
>>> result("CCN(CC)CCCC(C)Nc1ccnc2cc(Cl)ccc12 (stereo not shown) [chloroquine]")
">5 µM"

In: Using the record for CN(C)CCCN1c2ccccc2CCc2ccccc21 [imipramine] , report its β-hex activity increase.
Out: >40 µM

In: What do you have for CC[C@H]1OC(=O)[C@H](C)[C@@H](O[C@H]2C[C@@](C)(OC)[C@@H](O)[C@H](C)O2)[C@H](C)[C@@H](O[C@@H]2O[C@H](C)C[C@H](N(C)C)[C@H]2O)[C@](C)(O)C[C@@H](C)C(=O)[C@H](C)[C@@H](O)[C@]1(C)O [erythromycin] ?
Out: >400 µM

In: What do you have for CC/C(=C(\c1ccccc1)c1ccc(OCCN(C)C)cc1)c1ccccc1 [tamoxifen] ?
Out: >10 µM

In: What do you have for CNCCCC12CCC(c3ccccc31)c1ccccc12 [maprotiline] ?
Out: >20 µM

In: What do you have for C1CCC(C(CC2CCCCN2)C2CCCCC2)CC1 (stereo not shown) [perhexiline] ?
Out: 5 µM

In: What do you have for O=C(CCCN1CCC(O)(c2ccc(Cl)cc2)CC1)c1ccc(F)cc1 [haloperidol] ?
Out: >10 µM

In: What do you have for CCN(CC)CCO[C@H]1CC[C@@]2(C)C(=CC[C@@H]3[C@@H]2CC[C@]2(C)C(=O)CC[C@@H]32)C1 [U18666A] ?
Out: 3 µg/mL

In: What do you have for CN(C)CCCN1c2ccccc2Sc2ccc(Cl)cc21 [chlorpromazine] ?
Out: 20 µM

In: What do you have for CCCCc1oc2ccccc2c1C(=O)c1cc(I)c(OCCN(CC)CC)c(I)c1 [amiodarone] ?
Out: >10 µM

====

Tested on: NRK cells
Experimental Setup: rat, 24 h
Readout Kind: alteration of MPR localization (µM)
Field: numeric (µM). Do not append units.

>>> recorded_number("CNCCCC12CCC(c3ccccc31)c1ccccc12")
20

Now for a further molecule.
In: Using the record for C1CCC(C(CC2CCCCN2)C2CCCCC2)CC1 (centres unmarked) , report its alteration of MPR localization.
Out: 2.5

====

Test system: NRK cells
Experimental Setup: rat, 24 h
Readout Kind: alteration of MPR localization (µM)
Field: numeric (µM). Do not append units.

>>> recorded_number("CC/C(=C(\\c1ccccc1)c1ccc(OCCN(C)C)cc1)c1ccccc1")
10

Now for a further compound.
In: Using the record for CSc1ccc2c(c1)N(CCC1CCCCN1C)c1ccccc1S2 (stereo not shown) , report its alteration of MPR localization.
Out: 10

====

Tested on: NRK cells
Experimental Setup: rat, 24 h
Recorded alteration of MPR localization for the following compounds

>>> result("CCN(CC)CCO[C@H]1CC[C@@]2(C)C(=CC[C@@H]3[C@@H]2CC[C@]2(C)C(=O)CC[C@@H]32)C1 [U18666A]")
"3 µg/mL"
>>> result("CCN(CC)CCOc1ccc2c(c1)C(=O)c1cc(OCCN(CC)CC)ccc1-2 [tilorone]")
">5 µM"

Now for a further compound.
In: Using the record for CCN(CC)CCCC(C)Nc1ccnc2cc(Cl)ccc12 (stereo not drawn) [chloroquine] , report its alteration of MPR localization.
Out: >5 µM
